Tested on: KB-3-1
Assay: Cytotoxic Profiling of Annotated Libraries Using Quantitative High-Throughput Screening (AID 1296008); further: nearly all actives have a fitted effect of over 60% in size
Conditions: Five cell lines viability, CellTiter-Glo ATP luminescence, 48-72 h
Records with an inconclusive call do not appear. Active and inactive are the calls of the source. The call rests on the fitted dose curve; in most records, active means well fitted inhibition curve with a large enough effect; inconclusive means small, poorly fitted or top-dose-only effect; inactive means flat fitted curve, though single readings scatter.
Outcomes: active, inactive

compound=CC(C=CC(=O)NO)=C[C@@H](C)C(=O)c1ccc(N(C)C)cc1 subject_of_test=KB-3-1 category=active
compound="COc1cccc2c1C(=O)c1c(O)c3c(c(O)c1C2=O)C[C@@](O)(C(=O)CO)C[C@@H]3O[C@H]1C[C@H](N)[C@H](OC2CCCCO2)[C@H](C)O1 (stereo partly specified)" subject_of_test=KB-3-1 category=active
compound=O=C(O)C=Cc1ccc(Cn2ccnc2)cc1 subject_of_test=KB-3-1 category=inactive
compound="Cc1ccc(O)c(C(CCN(C(C)C)C(C)C)c2ccccc2)c1 (stereo unspecified)" subject_of_test=KB-3-1 category=inactive
compound=CCc1ccc(C(=O)Nc2cc(CN3CCN(C)CC3)cc(C(F)(F)F)c2)cc1C#Cc1cnc2ccnn2c1 subject_of_test=KB-3-1 category=active
compound=C[C@H](NC(=O)C(C#N)=Cc1cccc(Br)n1)c1ccccc1 subject_of_test=KB-3-1 category=active
